- test.protocol: chemical genetic growth profiling, strain panel (AID 1159580);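 further: tested at 20 µM; growth read once vehicle control cultures reached saturation at 30 °C; lower values mean less growth of the strain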
- conditions.used: S. cerevisiae deletion strains, growth OD, locus YKL160W, strain elf1
The whole screen tested about 5,500 compounds, of which about 2,000 (36%) were called active. Another 18% or so got no clear call; they are omitted. No stated cut-off is given here; in the data, active means normalized growth mostly below about 0.91 (no sharp cut-off); inconclusive means no clear call, values can overlap the other calls; inactive means mostly above about 0.92. This is one part of the list.
Labels: active, inactive

compound: C[C@@H]1CC[C@H]2C(C)(C)C3CC12CC[C@@]3(C)O (some centres undefined)
classification: active
//
compound: CN(C)CCC(c1ccccc1)c1ccccn1 (centres undefined)
classification: inactive
//
compound: COc1ccc2c(c1)OCC(Cc1ccc(OC)c(O)c1)C2=O (centres undefined)
classification: inactive
//
compound: CN(C/C=C/C#CC(C)(C)C)Cc1cccc2ccccc12
classification: active
//
compound: COc1cc2c(cc1OC)C1(O)C(=O)c3ccc(O)c(C(=O)O)c3OC1CO2 (centres undefined)
classification: inactive
//
compound: C=C[C@@]1(C)CC(=O)[C@@]2(O)[C@](C)(O1)[C@@H](OC(C)=O)[C@@H](O)C1C(C)(C)CC[C@H](O)[C@@]12C (some centres undefined)
classification: inactive
//
compound: CN[C@@H]1C(OC2[C@H](O[C@H]3[C@H](O)[C@@H](O)[C@H](N=C(N)N)[C@@H](O)[C@@H]3N=C(N)N)OC(C)[C@]2(O)CO)OC(CO)C(O)C1O (some centres undefined)
classification: inactive
//
compound: CCCn1c(=O)c2[nH]c(C3CCCC3)nc2n(CCC)c1=O
classification: inactive
//
compound: NC(C(=O)O)C(O)C(=O)O (centres undefined)
classification: inactive

The origin of these recorded values is PubChem BioAssay AID1159580.
